Target: recombinant eIF4E (Homo sapiens (Human))
Sequence (P06730 whole entry): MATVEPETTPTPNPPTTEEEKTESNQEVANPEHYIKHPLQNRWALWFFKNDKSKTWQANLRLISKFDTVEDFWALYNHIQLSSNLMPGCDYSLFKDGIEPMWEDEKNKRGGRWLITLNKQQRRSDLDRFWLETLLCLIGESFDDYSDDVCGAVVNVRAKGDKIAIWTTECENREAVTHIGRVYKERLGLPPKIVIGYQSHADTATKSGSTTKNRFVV
Test: Fluorescence polarization competition assay for eIF4E binding potency
Settings: fluorescence polarization competition, 75 nM recombinant eIF4E, 20 nM EDA-m7GDP-ATTO-550; IC50 class; read-out: elF4E FP
assay-endpoint: IC50

Record `Cc1cc(-c2cc(Cl)ccc2OCCn2c(C)nc3cc(C(F)(F)F)c(N4CCN(C)CC4)c(C#N)c3c2=O)cc(C)n1` . Reported IC50: < 50 nM

Briefly, IC50 measured for `Cc1cc(-c2cc(Cl)ccc2OCCn2c(C)nc3cnc(OC4CN(C)C4)c(C#N)c3c2=O)c2sc(C)c(C(=O)O)c2n1` : < 50 nM

IC50 reported for this compound `Cc1nc2cc(C(F)F)cc(C#N)c2c(=O)n1CCOc1ccc(Cl)cc1-c1cccc(C(=O)O)c1` : 50 to 1000 nM

response.value for `Cc1cc2nccc(-c3cc(Cl)ccc3OCCn3c(C)nc4cc(C(F)(F)F)c(N5CCN(C)CC5)c(C#N)c4c3=O)c2s1` (field: IC50) = 50 to 1000 nM

Documented IC50 of `Cc1cc(-c2cc(Cl)ccc2C#CCn2c(C)nc3cncc(C#N)c3c2=O)c2scc(C(=O)O)c2n1` : 50 to 1000 nM

// field: IC50; key: `Cc1cc(-c2cc(Cl)ccc2OCCn2c(C)nc3cc(C(F)(F)F)c(-c4scnc4C)nc3c2=O)c2scc(C(=O)O)c2n1` ; value = < 50 nM

Quick note, IC50 for `Cc1cc(-c2cc(Cl)ccc2OCCn2c(C)nc3cc(C(F)(F)F)c(-c4cncnc4)nc3c2=O)c2scc(C(=O)O)c2n1` landed at < 50 nM

Record summary for `COc1cc(-c2cc(Cl)ccc2OCCn2cnc3cnc(C#N)cc3c2=O)cc(C(=O)O)n1` : reported IC50 = > 1000 nM

The recorded IC50 for `Cc1cc(-c2cc(Cl)ccc2OCCn2c(C)nc3cc(C(F)(F)F)c(-c4cnc(C)c(C)n4)c(C#N)c3c2=O)c2scc(C(=O)O)c2n1` is < 50 nM

Please fill in: IC50 reported for `Cc1cc(-c2cc(Cl)ccc2OCCn2c(C)cc3cnc(N4CCC4)c(C#N)c3c2=O)c2scc(C(=O)O)c2n1` = < 50 nM

Recorded result, `CCCc1cc(-c2cc(Cl)ccc2OCCn2c(C)nc3cnc(C4CC4)c(C#N)c3c2=O)c2scc(C(=O)O)c2n1` , IC50: < 50 nM

Briefly, IC50 measured for `Cc1nc2cc(C(F)(F)F)cc(C#N)c2c(=O)n1CCOc1ccc(Cl)cc1-c1coc2c(C(=O)O)cccc12` : < 50 nM

For record `Cc1nc2cc(C(F)(F)F)c(CN3CCCC3)c(C#N)c2c(=O)n1CCOc1ccc(Cl)cc1-c1ccnc2c(C(=O)O)csc12` the listed IC50 is 50 to 1000 nM

Quick note, IC50 for `Cc1nc2c(F)c(F)c(C(F)F)c(C#N)c2c(=O)n1CCOc1ccc(Cl)cc1-c1ccnc2c(C(=O)O)csc12` landed at 50 to 1000 nM

Entry `Cc1nc2cc(C#N)c(F)c(C#N)c2c(=O)n1CCOc1ccc(Cl)cc1-c1ccnc2c(C(=O)O)csc12` — recorded IC50 = < 50 nM

# compound `Cc1nc2cnc(N(C)C3CCN(C4(C(F)(F)CO)CC4)CC3)c(C#N)c2c(=O)n1CC#Cc1ccc(Cl)cc1-c1ccnc2c(C(=O)O)csc12` ; its IC50 = < 50 nM

Memo: `COc1cc(C#N)c2c(=O)n(CCOc3ccc(Cl)cc3-c3ccnc4c(C(=O)O)csc34)c(C)nc2c1` , reported IC50: < 50 nM

The compound `O=C(O)c1cccc(-c2cc(Cl)ccc2OCCn2ccc3ncncc3c2=O)c1` showed IC50 equal to > 1000 nM

Entry under test: `Cc1ncc(F)cc1-c1c(C(F)(F)F)cc2nc(C)n(CCOc3ccc(Cl)cc3-c3ccnc4ccsc34)c(=O)c2c1C#N` . Its IC50 was 50 to 1000 nM

Record `Cc1nc2cc(C(F)(F)F)c(N3CCN(C)CC3)nc2c(=O)n1CC#Cc1ccc(Cl)cc1-c1ccnc2c(C(=O)O)csc12` , field IC50: < 50 nM

compound `Cc1nc2c(ccc3cnncc32)c(=O)n1CCOc1ccc(Cl)cc1-c1ccnc2c(C(=O)O)csc12` , IC50 observed: < 50 nM

GET /value?item= `Cc1nc2cnc(N3CC4(C3)CN(C3CC3)C4)c(C#N)c2c(=O)n1CC#Cc1ccc(Cl)cc1-c1ccnc2c(C(=O)O)csc12` &field=IC50 returns < 50 nM

Entry `N#Cc1cccc2c1c(=O)n(CCOc1ccc(Cl)cc1-c1ccnc3c(C(=O)O)csc13)c1ccccc21` ; IC50 = < 50 nM

Per the record, `Cc1cc(-c2cc(Cl)ccc2OCCn2c(C)nc3cc(C(F)(F)F)c(N4CCSCC4)c(C#N)c3c2=O)c2scc(C(=O)O)c2n1` has IC50 of 50 to 1000 nM

Form: compound = `Cc1nc2cncc(C#N)c2c(=O)n1CC#Cc1ccc(Cl)cc1-c1ccc(C(=O)O)c(C(=O)O)c1` ; IC50 = 50 to 1000 nM

Form: compound = `Cc1cc(-c2cc(Cl)ccc2OCCn2c(C)nc3nc(C(F)(F)F)c(N4CCN(C)CC4)cc3c2=O)c2scc(C(=O)O)c2n1` ; IC50 = < 50 nM

The measured IC50 associated with `Cc1cc(-c2cc(Cl)ccc2OCCn2c(C)nc3cnc(C(C)(C)C)c(C#N)c3c2=O)c2scc(C(=O)O)c2n1` reads < 50 nM

Data origin, for the record: patent US11286268B1
